# test.system: GGTase-I (Rattus norvegicus, UniProt P53610+Q04631)
# Construct: purchased JENA BIOSCIENCE
# measurement.description: In vitro GGTase-I enzyme assay (IC50, kinetics)
# Format: biochemical
# run.conditions: Tables 8-15; no unit printed there (Table 7 head: μM unless otherwise specified); read-out: In vitro (GGTase I IC50)
assay.readout: log10 of IC50 (log10 of the value in µM)
In our notation, the value equals log10 of IC50 in µM.

CC(C)C[C@H](NC(=O)C1=CC[C@@H](c2cccc(Br)c2)N(S(=O)(=O)c2ccc(F)cc2)[C@H]1c1cccc(Cl)c1)C(N)=O    0.84

Identify log10 of IC50 associated with the compound Cc1ccccc1S(=O)(=O)N1[C@@H](c2ccc(Cl)c(Cl)c2)C(C(=O)N[C@@H](Cc2ccccc2)C(N)=O)=C[C@H]1C(C)(C)C [P61-B11]
0.88

Identify log10 of IC50 associated with the compound Cc1ccccc1S(=O)(=O)N1[C@@H](c2ccc(Cl)cc2)C(COCC(=O)N[C@@H](Cc2ccccc2)C(N)=O)=C[C@H]1C(C)(C)C
-0.15

Identify log10 of IC50 associated with the compound Cc1ccccc1S(=O)(=O)N1[C@@H](c2ccc(Cl)c(Cl)c2)C(C(=O)O)=C[C@H]1C(C)(C)C
-0.44

Identify log10 of IC50 associated with the compound CC(C)C[C@H](NC(=O)C1=CC[C@@H](c2cccc(Br)c2)N(S(=O)(=O)c2ccc(Cl)cc2)[C@H]1c1cccc(Cl)c1)C(N)=O
1.59

Identify log10 of IC50 associated with the compound CC(C)C[C@H](NC(=O)C1=CC[C@@H](c2cccc(Br)c2)N(S(=O)(=O)c2ccc(F)cc2)C1c1cccc(Cl)c1)C(N)=O (some centres unmarked)
1.52

Identify log10 of IC50 associated with the compound Cc1ccccc1S(=O)(=O)N1[C@@H](c2ccc(Cl)cc2)C(C(=O)N[C@@H](Cc2ccccc2)C(=O)O)=C[C@H]1C(C)(C)C [drawing 152]
0.15

Measured values drawn from patent US8815935B2 for this set.
